Test system: diaphorase
test_protocol: Formation of formazan dyes: only diaphorase and malate (TABLE 14)
Type: biochemical, Clostridium kluyveri
experimental_context: 4 h, mean of three experiments
observable: Absorbance, formation of formazan dyes (Means)
Reply: number alone, nothing else.

(Q) Tell us which Absorbance, formation of formazan dyes (Means) value is on record for Cc1nc(-[n+]2nc(-c3cccc(OCC(=O)O)c3)nn2-c2ccc(S(=O)(=O)[O-])cc2)sc1C [MTS]
(A) 0.46

(Q) Return the recorded Absorbance, formation of formazan dyes (Means) value; entry: COc1cc([N+](=O)[O-])c(S(=O)(=O)[O-])cc1-n1nc(C(=O)Nc2ccccc2)n[n+]1-c1cc(S(=O)(=O)O)c([N+](=O)[O-])cc1OC [XTT]
(A) 0.52

(Q) Please report Absorbance, formation of formazan dyes (Means) for the following compound: COc1cc([N+](=O)[O-])ccc1-[n+]1nc(-c2ccc(S(=O)(=O)[O-])cc2S(=O)(=O)[O-])nn1-c1ccc([N+](=O)[O-])cc1.[Na+] [WST-8]
(A) 0.21

(Q) Tell me Absorbance, formation of formazan dyes (Means) reported for O=[N+]([O-])c1ccc(-[n+]2nc(-c3ccc(S(=O)(=O)[O-])cc3S(=O)(=O)[O-])nn2-c2ccc(I)cc2)cc1.[Na+] [WST-1]
(A) 0.24

(Q) State its Absorbance, formation of formazan dyes (Means): COc1cc(-c2ccc(-[n+]3nc(-c4ccc(C(=O)N(CCS(=O)(=O)[O-])CCS(=O)(=O)[O-])cc4)nn3-c3nc4ccccc4s3)c(OC)c2)ccc1-[n+]1nc(-c2ccc(C(=O)N(CCS(=O)(=O)[O-])CCS(=O)(=O)[O-])cc2)nn1-c1nc2ccccc2s1.[Na+].[Na+] [WST-5]
(A) 0.21

====

Tested on: oral lavage
test_protocol: Formation of formazan dyes: oral lavage and diaphorase, not malate (TABLE 11)
Type: biochemical, human
experimental_context: oral lavage and diaphorase, not malate; 1 h
# label = yes (1) if Formation of formazan dyes, absorbance, Means 1 h >= 0.8 else no (0)

(Q) Given COc1cc([N+](=O)[O-])c(S(=O)(=O)[O-])cc1-n1nc(C(=O)Nc2ccccc2)n[n+]1-c1cc(S(=O)(=O)O)c([N+](=O)[O-])cc1OC , state whether its Formation of formazan dyes, absorbance, Means 1 h is at least 0.8.
(A) yes (1)

(Q) Evaluate O=[N+]([O-])c1ccc(-[n+]2nc(-c3ccc(S(=O)(=O)[O-])cc3S(=O)(=O)[O-])nn2-c2ccc(I)cc2)cc1.[Na+] : Formation of formazan dyes, absorbance, Means 1 h at minimum 0.8?
(A) yes (1)

(Q) I'd appreciate it if you could say whether COc1cc(-c2ccc(-[n+]3nc(-c4ccc(C(=O)N(CCS(=O)(=O)[O-])CCS(=O)(=O)[O-])cc4)nn3-c3nc4ccccc4s3)c(OC)c2)ccc1-[n+]1nc(-c2ccc(C(=O)N(CCS(=O)(=O)[O-])CCS(=O)(=O)[O-])cc2)nn1-c1nc2ccccc2s1.[Na+].[Na+] has Formation of formazan dyes, absorbance, Means 1 h at least equal to 0.8.
(A) no (0)

(Q) Does Formation of formazan dyes, absorbance, Means 1 h meet or surpass 0.8 for COc1cc([N+](=O)[O-])ccc1-[n+]1nc(-c2ccc(S(=O)(=O)[O-])cc2S(=O)(=O)[O-])nn1-c1ccc([N+](=O)[O-])cc1.[Na+] ?
(A) yes (1)

(Q) Would you say Cc1nc(-[n+]2nc(-c3cccc(OCC(=O)O)c3)nn2-c2ccc(S(=O)(=O)[O-])cc2)sc1C shows Formation of formazan dyes, absorbance, Means 1 h at minimum 0.8?
(A) yes (1)
